Target: LATS1 (Homo sapiens)
Sequence (O95835 whole entry): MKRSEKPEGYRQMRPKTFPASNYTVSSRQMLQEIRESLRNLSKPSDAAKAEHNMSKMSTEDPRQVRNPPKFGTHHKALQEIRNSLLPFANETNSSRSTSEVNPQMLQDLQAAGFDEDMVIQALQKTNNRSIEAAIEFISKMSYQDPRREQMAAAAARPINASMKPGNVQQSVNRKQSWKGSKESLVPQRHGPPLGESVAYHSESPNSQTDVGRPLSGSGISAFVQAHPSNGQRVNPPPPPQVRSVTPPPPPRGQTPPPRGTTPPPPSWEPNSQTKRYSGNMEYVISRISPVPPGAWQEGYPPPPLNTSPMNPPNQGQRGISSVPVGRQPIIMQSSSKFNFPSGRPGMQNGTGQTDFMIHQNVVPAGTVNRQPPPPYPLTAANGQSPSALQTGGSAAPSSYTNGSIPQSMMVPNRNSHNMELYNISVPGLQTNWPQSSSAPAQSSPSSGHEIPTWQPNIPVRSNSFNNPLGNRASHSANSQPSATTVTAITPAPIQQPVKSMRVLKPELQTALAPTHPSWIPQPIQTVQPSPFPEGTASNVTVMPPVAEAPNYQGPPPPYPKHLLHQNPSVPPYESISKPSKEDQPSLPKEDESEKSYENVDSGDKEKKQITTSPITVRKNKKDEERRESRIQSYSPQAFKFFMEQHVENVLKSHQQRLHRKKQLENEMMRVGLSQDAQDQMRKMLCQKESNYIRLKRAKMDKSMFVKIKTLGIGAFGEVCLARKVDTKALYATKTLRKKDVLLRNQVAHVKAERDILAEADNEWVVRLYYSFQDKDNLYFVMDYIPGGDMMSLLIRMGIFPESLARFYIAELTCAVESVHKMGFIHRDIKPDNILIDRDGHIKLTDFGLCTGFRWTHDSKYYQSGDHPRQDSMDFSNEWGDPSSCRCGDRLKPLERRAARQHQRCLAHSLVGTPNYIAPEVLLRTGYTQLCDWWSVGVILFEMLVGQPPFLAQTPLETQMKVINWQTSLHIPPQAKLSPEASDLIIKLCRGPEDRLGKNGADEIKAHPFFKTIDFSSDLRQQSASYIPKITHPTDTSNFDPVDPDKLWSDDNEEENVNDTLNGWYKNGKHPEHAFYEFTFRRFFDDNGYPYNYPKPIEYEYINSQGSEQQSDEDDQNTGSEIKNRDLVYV
Experiment: RBC HotSpot kinase assay (33P-ATP, P81 filter-binding), LATS1
Assay type: biochemical
Conditions: Table 28, biochemical kinase assay; read-out: LATS1 IC50
measured parameter: pIC50
// pIC50 here means minus log10 of the molar concentration (mol/L)

# molecule, measured parameter, measured value
records = [
    ("Cc1cc(-c2ccnc3[nH]ccc23)cc(F)c1[C@@]1(O)[C@H](C)CN(C2CCS(=O)(=O)CC2)C[C@@H]1C [Compound 308]", "pIC50", 8.00),
    ("NCc1ccc(-c2cc(-c3ccnc4[nH]cc(Br)c34)ccc2C2CCNCC2)cc1 [Compound 151]", "pIC50", 7.78),
    ("OC1(c2ccc(-c3ccnc4[nH]cc(-c5cccnc5)c34)cc2)CCNCC1 [Compound 126]", "pIC50", 8.04),
]

Now take the following molecule into account.
Prompt: Given the entry CC(C)(C)Nc1cc(-c2ccnc3[nH]ccc23)ccc1CN [Compound 203] , report its measured pIC50.
Response: 7.15
